Just for reference, PubChem BioAssay AID1159580 is where these values come from.

Catalogue of normalized growth readings, one per entry.
protocol details: chemical genetic growth profiling, strain panel (AID 1159580);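 further: tested at 20 µM; growth read once vehicle control cultures reached saturation at 30 °C; 1 = growth at the plate median or of vehicle wells; lower values mean less growth of the strain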
setup conditions: S. cerevisiae deletion strains, growth OD, locus YDL101C, strain DUN1, hits give low values
In all, about 5,500 compounds went through this assay and about 2,000 (36%) were called active. Not shown: some 18% with an inconclusive outcome. The list shows a part of the results.
Enter the number alone.

NNC(=O)c1ccncc1 | 1.01
CC(C)(Oc1ccc(CCNC(=O)c2ccc(Cl)cc2)cc1)C(=O)O | 1.01
O=C(NCCc1ccncc1)c1ccc(Cl)c(Cl)c1 | 0.98

Task: What normalized growth value was documented for this molecule, Clc1ccc2c(c1)c1ccccc1n2CN1CCOCC1 ?
Result: 0.975

Task: What normalized growth value was documented for this molecule, Cc1ccc(-c2cc(C(F)(F)F)nn2-c2ccc(S(N)(=O)=O)cc2)cc1 ?
Result: 1.02

Task: What normalized growth value was documented for this molecule, C[C@@H]1CC[C@H]2[C@@H](C)C(O)O[C@@H]3O[C@@]4(C)CC[C@@H]1[C@]32OO4 (stereo partly specified) ?
Result: 0.325

Task: What normalized growth value was documented for this molecule, C/C=C1\[C@H]2C=C(C)C[C@]1(N)c1ccc(=O)[nH]c1C2 ?
Result: 1.01

Task: What normalized growth value was documented for this molecule, CC1C(=O)OC2C1CCC1(C)C=CC(=O)C3(C)OC213 (stereo unspecified) ?
Result: 1

Task: What normalized growth value was documented for this molecule, O=S(=O)(CCN1CCOCC1)c1ccc(Cl)cc1 ?
Result: 0.967

Task: What normalized growth value was documented for this molecule, Nc1ccc(-n2nc(C(F)(F)F)cc2C(F)(F)F)cc1 ?
Result: 1

Task: What normalized growth value was documented for this molecule, C[C@@H]1CC[C@H]2[C@@H](C)C(=O)O[C@@H]3O[C@@]4(C)CC[C@@H]1[C@]32OO4 ?
Result: 0.913
